- ASSAY_SYSTEM: Nuclear respiratory factor 1 (Homo sapiens) (UniProt Q16656)
- Sequence (Q16656 whole entry, looked up): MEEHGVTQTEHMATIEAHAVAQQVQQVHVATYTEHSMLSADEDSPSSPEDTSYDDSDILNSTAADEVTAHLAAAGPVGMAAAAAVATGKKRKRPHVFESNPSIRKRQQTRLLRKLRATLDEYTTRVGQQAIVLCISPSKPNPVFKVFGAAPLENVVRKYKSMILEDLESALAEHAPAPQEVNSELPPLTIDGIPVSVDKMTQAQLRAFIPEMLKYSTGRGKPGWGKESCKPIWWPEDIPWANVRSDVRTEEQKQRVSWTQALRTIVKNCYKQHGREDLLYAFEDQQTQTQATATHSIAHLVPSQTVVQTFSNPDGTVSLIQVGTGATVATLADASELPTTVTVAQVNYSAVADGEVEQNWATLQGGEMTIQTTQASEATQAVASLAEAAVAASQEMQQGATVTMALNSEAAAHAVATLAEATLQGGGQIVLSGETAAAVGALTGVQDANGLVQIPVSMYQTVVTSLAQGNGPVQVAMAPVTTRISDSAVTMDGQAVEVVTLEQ
- METHOD_DESCRIPTION: ATG_NRF1_CIS: Attagene CIS-FACTORIAL HepG2 Assay for human Nuclear Respiratory Factor 1 (NRF1) Orphan Gene (AID 2282987)
- EXPERIMENTAL_PARAMETERS: HepG2 NRF1 cis-element reporter, Attagene multiplex; actives raise or lower the signal
Activity calls are given as the source filed them. How the source made its calls: active means hit-call score of the fitted dose curve at least 0.9, where 1 is the maximum; inactive means score below 0.9.
Possible outcomes: 1 (yes) = active, 0 (no) = inactive

1) CCCCCCC(O)CCCCCCCCCCC(=O)OC (stereo not drawn) | 0 (no)
2) CC=CC(=O)O | 0 (no)
3) CC/C=C/CCO | 0 (no)
4) CCCCC(CC)COC(=O)CS (stereo not drawn) | 0 (no)
5) O=C(O)/C=C\C(=O)O | 0 (no)
6) CCCCCC[C@@H](O)C/C=C\CCCCCCCC(=O)O | 1 (yes)
7) O=C(C1CCCCC1)N1CC(=O)N2CCc3ccccc3C2C1 (stereo not drawn) | 0 (no)
8) CCC(C)(CCC(C)C)C(=O)O (stereo not drawn) | 0 (no)
9) Cc1cc2nc3c(=O)[nH]c(=O)nc-3n(C[C@H](O)[C@H](O)[C@H](O)CO)c2cc1C | 0 (no)
10) CCOc1ccc2c(c1)C(C)CC(C)(C)N2 (stereo not drawn) | 0 (no)
11) c1cc(N(CC2CO2)CC2CO2)ccc1Cc1ccc(N(CC2CO2)CC2CO2)cc1 (stereo not drawn) | 0 (no)
12) Cc1ccccc1S(=O)(=O)O | 0 (no)
13) O=C(O)Cc1c[nH]c2ccccc12 | 0 (no)
14) O=[N+]([O-])c1ccccc1C(F)(F)F | 0 (no)
15) CCCCCCCCCC/C=C/C1CC(=O)OC1=O (stereo not drawn) | 0 (no)
16) C=C(C)C(=O)OCCCCCC | 0 (no)
17) CC1=NN(c2cc(Cl)c(S(=O)(=O)O)cc2Cl)C(=O)C1N=Nc1ccc(S(=O)(=O)O)cc1 (stereo not drawn) | 0 (no)
18) COC(=O)[C@]1(C)CCC[C@@]2(C)[C@H]1CC=C1C=C(C(C)C)CC[C@@H]12 | 0 (no)
